# GI50 per entry
# System: TK-10
# assay notes: NCI tumour cell line growth inhibition, 48 h
Calls of active or inactive are those of the source. No stated cut-off is given here; in the data, active = GI50 up to about 1.1 µM and inactive = higher.

Sample records with GI50:
{"columns": ["molecule", "GI50"],
 "data": [
  ["CN(CCO)CC(=O)CC(O)(C(F)(F)F)C(F)(F)F", "35.4 µM (inactive)"],
  ["COC(=O)CCC(NC(=O)OC(C)(C)C)C(=O)NC(Cc1ccc(NC(=O)CCCC(C)=O)cc1)C(=O)NC(CCC(=O)OC)C(=O)OC (stereo unspecified)", "> 100 µM (inactive)"],
  ["Nc1ccc2c(c1)S(=O)(=O)c1cc(N)ccc1-2", "> 100 µM (inactive)"],
  ["CCCCCCCCCCCCCCCc1nnc(S)[nH]1", "> 100 µM (inactive)"],
  ["CC(=O)OC/C=C(\\C)CCC(Br)C(C)(C)Br (stereo unspecified)", "> 10 µM (inactive)"]
]}

Form: item CCCCOCn1c(=O)[nH]c(=O)c2ccccc21 ; test system TK-10; GI50: > 100 µM (inactive)
